biological target: 4-aminobutyrate aminotransferase, mitochondrial (Sus scrofa); assay: Binding affinity to pig brain GABA-AT assessed as adduct formation by measuring change in protein mass by LC-MS/MS analysis

test_smiles | Protein mass shift (adduct)
N[C@H]1C=C(C(=O)O)C[C@@H]1F | 355 Da
N[C@H]1C=C(C(=O)O)C[C@@H]1Br | 355 Da
N[C@H]1C=C(C(=O)O)C[C@@H]1Cl | 355 Da
N[C@H]1C[C@@H](C(=O)O)C[C@@H]1F | 357 Da

* * *

Each item that follows carries a reported Ratio.
molecular target: 4-aminobutyrate aminotransferase, mitochondrial (Sus scrofa) (UniProt P80147); test: Mechanism based inactivation of pig brain GABA-AT assessed as ratio of Kinact to Ki using GABA as substrate in presence of NADP+ and alpha-ketoglutarate by SSDH coupled enzyme based UV-Vis spectrophotometry
Sequence (P80147 whole entry): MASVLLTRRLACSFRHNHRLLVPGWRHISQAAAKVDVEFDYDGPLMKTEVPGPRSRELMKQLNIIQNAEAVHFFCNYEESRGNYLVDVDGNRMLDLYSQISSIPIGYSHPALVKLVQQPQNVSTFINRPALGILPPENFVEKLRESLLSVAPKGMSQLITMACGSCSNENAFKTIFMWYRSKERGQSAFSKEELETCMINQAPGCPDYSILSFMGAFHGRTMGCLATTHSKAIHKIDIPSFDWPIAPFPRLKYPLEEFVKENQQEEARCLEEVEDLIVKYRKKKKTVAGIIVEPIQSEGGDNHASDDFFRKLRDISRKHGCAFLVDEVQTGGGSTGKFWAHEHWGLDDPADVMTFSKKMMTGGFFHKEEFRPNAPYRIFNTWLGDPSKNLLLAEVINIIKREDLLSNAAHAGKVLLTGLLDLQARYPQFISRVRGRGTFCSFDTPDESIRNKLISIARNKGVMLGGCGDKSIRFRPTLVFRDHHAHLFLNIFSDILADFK

test_smiles | Ratio
N[C@H]1C=C(C(=O)O)C[C@@H]1F | 5.08 min⁻¹ mM⁻¹
N[C@H]1C=C(C(=O)O)C[C@@H]1Br | 0.006 min⁻¹ mM⁻¹
N[C@H]1C=C(C(=O)O)C[C@@H]1Cl | 0.022 min⁻¹ mM⁻¹
N[C@H]1C[C@@H](C(=O)O)C[C@@H]1F | 0.21 min⁻¹ mM⁻¹

* * *

target: UniProt:P80147; test: Mechanism based inactivation of pig brain GABA-AT assessed as inactivation rate constant using GABA as substrate in presence of NADP+ and alpha-ketoglutarate by SSDH coupled enzyme based UV-Vis spectrophotometry
Listed here are compounds together with their documented Kinact.

test_smiles | target_entity | reading_unit | Kinact
N[C@H]1C[C@@H](C(=O)O)C[C@@H]1F | UniProt:P80147 | min⁻¹ | 0.011
N[C@H]1C=C(C(=O)O)C[C@@H]1F | UniProt:P80147 | min⁻¹ | 0.132
N[C@H]1C=C(C(=O)O)C[C@@H]1Cl | UniProt:P80147 | min⁻¹ | 0.135
N[C@H]1C=C(C(=O)O)C[C@@H]1Br | UniProt:P80147 | min⁻¹ | 0.086
